Molecular target: T1, human CD81 on CD81-expressing cells (Jurkat E6.1, human PBMC, Ramos) (human, UniProt P60033 1-236)
T1 sequence: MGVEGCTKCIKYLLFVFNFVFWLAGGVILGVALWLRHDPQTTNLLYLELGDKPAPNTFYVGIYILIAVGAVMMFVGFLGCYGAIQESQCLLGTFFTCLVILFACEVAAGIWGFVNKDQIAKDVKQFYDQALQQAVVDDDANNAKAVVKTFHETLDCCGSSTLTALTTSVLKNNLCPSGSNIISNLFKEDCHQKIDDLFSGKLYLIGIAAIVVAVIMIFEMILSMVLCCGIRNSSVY
Experiment: cell-based or functional assay
VALUE TYPE: Jurkat chemotaxis (% of control IgG4) at 1 µg/mL (%)
Please state the figure in %; there is no need to write the unit.

1) 002-F01 (antibody, human IgG4 S228P, lambda, V domains shown, IgG4 S228P) VH: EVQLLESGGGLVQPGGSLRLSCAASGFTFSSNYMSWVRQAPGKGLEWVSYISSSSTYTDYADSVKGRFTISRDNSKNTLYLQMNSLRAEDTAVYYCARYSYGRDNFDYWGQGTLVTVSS VL: QSVLTQPPSASGTPGQRVTISCTGSTSNIGAGYDTHWYQQLPGTAPKLLIYGNSNRPSGVPDRFSGSKSGTSASLAISGLRSEDEADYYCQSYDTNLSAWVFGGGTKLTVLG : 4
2) 002-A07 N113Q (antibody, human IgG4 S228P, lambda, V domains shown, IgG4 S228P; glycosylation site mutant of 002-A07 VL) VH: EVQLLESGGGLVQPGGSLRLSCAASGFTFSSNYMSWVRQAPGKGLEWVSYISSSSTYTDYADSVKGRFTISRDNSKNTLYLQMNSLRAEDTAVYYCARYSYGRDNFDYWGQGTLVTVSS VL: QSVLTQPPSASGTPGQRVTISCTGSTSNIGAGYDTHWYQQLPGTAPKLLIYGNSNRPSGVPDRFSGSKSGTSASLAISGLRSEDEADYYCQSYDTQLSVWVFGGGTKLTVLG : 13

Could you now look at the following binder, please?
Exercise: Which Jurkat chemotaxis (% of control IgG4) at 1 µg/mL value is on record for 002-C02 (antibody, human IgG4 S228P, lambda, V domains shown, IgG4 S228P) VH: EVQLLESGGGLVQPGGSLRLSCAASGFTFSSNYMSWVRQAPGKGLEWVSYISSSSSYTDYADTVKGRFTISRDNSKNTLYLQMNSLRAEDTAVYYCASYSYGRDSFDYWGQGTLVTVSS VL: QSVLTQPPSASGTPGQRVTISCTGSTSNIGAGYDTHWYQQLPGTAPKLLIYGNSNRPSGVPDRFSGSKSGTSASLAISGLRTEDEADYYCQSYDTNLSVWVFGGGTKLTVLG ?
Key: -5

Reference source for all entries: patent US20150139990A1
